// data source = PubChem BioAssay (NCI)

test system: SK-MEL-28 melanoma; test: NCI tumour cell line growth inhibition, 48 h
Listed here are molecules together with their documented TGI.

CC(C)(C)C1=CC(=C(P(=O)(O)O)P(=O)(O)O)C=C(C(C)(C)C)C1=O; > 50 µM
CC(C)C[C@H](NC(=O)CNC(=O)c1cc(Cl)ccc1Cl)B(O)O; 0.174 µM
COc1cccc2c1c1ccc3c(c1n2C)C(=O)C=CC3=O; 33.4 µM
Cc1cnc2n1S(=O)(=O)c1cc(C(=O)Nc3cccc4nsnc34)c(Cl)cc1S2; 42.6 µM
C[C@H](C1CC(C)(O)C(C)(O)C(O)O1)[C@H]1CC[C@H]2[C@@H]3[C@@H]4O[C@@H]4[C@@]4(O)CC=CC(=O)[C@]4(C)[C@H]3CC[C@]12C (some centres not stated); > 50 µM

Query: I'd like to know its TGI. The molecule in question is OC12c3ccccc3C1CCCCC2N1CCCC1 (configuration not stated)
Reply: > 100 µM

Query: Same question for O=C(O)CCNCC(=O)O please.
Reply: > 100 µM

Query: Same question for CSc1nc(-c2ccc(Cl)cc2)c(C#N)c(=O)n1C1OC(COC(C)=O)C(OC(C)=O)C(OC(C)=O)C1OC(C)=O (configuration not stated) please.
Reply: > 100 µM

Query: Same question for CSc1ccc2c(cc1=O)[C@@H](NC(=O)c1cccc([N+](=O)[O-])c1)CCc1cc(O)c(O)c(O)c1-2 please.
Reply: > 100 µM

Query: Same question for COc1cc(/C=C2\C(=O)N(C(=O)Cc3ccccc3)N=C2C)cc(OC)c1OC please.
Reply: > 100 µM
